Reference source: PubChem BioAssay (NCATS)

- testedSystem: Protein phosphatase 1D (Homo sapiens) (UniProt O15297)
- Sequence (O15297 whole entry, looked up): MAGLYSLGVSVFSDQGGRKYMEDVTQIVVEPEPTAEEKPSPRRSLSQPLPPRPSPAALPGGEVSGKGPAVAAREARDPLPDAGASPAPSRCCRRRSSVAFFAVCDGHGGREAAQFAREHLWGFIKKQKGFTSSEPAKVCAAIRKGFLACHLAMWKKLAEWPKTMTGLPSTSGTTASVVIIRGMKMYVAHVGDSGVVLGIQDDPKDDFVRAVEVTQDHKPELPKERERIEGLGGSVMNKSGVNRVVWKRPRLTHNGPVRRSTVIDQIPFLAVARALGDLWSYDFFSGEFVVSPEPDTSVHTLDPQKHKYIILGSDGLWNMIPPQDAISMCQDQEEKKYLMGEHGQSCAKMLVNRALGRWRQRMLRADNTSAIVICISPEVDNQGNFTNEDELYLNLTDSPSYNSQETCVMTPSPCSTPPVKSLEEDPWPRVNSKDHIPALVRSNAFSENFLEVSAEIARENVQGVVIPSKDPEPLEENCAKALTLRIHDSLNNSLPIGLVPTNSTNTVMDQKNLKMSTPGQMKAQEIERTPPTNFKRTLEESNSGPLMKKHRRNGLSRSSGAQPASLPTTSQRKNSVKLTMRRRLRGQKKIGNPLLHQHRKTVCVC
- protocolText: RapidFire Mass Spectrometry qHTS Assay for Modulators of WT P53-Induced Phosphatase 1 (WIP1) (AID 1347424);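 further: amount of dephosphorylated VEPPL-S-QETFS peptide product formed by WIP1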
- testParameters: WIP1 dephosphorylation of phosphopeptide, RapidFire MS; series mostly up to 63 µM
Results filed as inconclusive are left out. Calls of active or inactive are those of the source. The call rests on the fitted dose curve; in most records, active means well fitted inhibition curve with a large enough effect; inconclusive means small, poorly fitted or top-dose-only effect; inactive means no such curve, though single readings can be large or run the other way.
readout: outcome

Check out these entries, answers already filled in.
Nc1ccc([As](=O)(O)O)cc1	inactive
COc1cc(CCN)cc(OC)c1OC	inactive
O=C(CCCN1CCC2(CC1)C(=O)NCN2c1ccccc1)c1ccc(F)cc1	inactive
CC(C)(C)NCC(O)c1ccccc1Cl (stereo not given)	inactive
CCN(CC)C(=O)[C@@H]1C=C2c3cccc4[nH]cc(c34)C[C@H]2N(C)C1	inactive

Shifting focus to the molecule that follows.
Query: Quick check: outcome of CCC(CC)(CNC(=O)CCCO)c1cccc(OC)c1 ?
Reply: inactive
